Source listed as patent US20030130169A1.

targetSystem: SLI-SLIII loop-loop complex
assayExplanation: In vitro SLI-SLIII loop-loop disruption assay (displacement of fluorescein-labeled SLIII from bead-bound SLI)
Format: binding
experimentalContext: biotinylated SLI on streptavidin agarose bead, fluorescein-labeled SLIII displaced; read-out: Kd for disrupting the SLI-SLIII interaction
pKd: −log10 of the molar value.
readoutLabel: pKd

1) CN[C@@H]1[C@@H](O[C@H]2O[C@H](CO)[C@@H](N)[C@H](O)[C@H]2O)OC2C[C@@H](N)[C@@H](O[C@H]3[C@H](O)[C@@H](O)[C@H](N)C[C@@H]3N)OC2[C@@H]1O (stereo partly shown) = 6.00
